measured.target: Beta Secretase enzyme (BACE1) (Homo sapiens (Human))
Sequence (P56817 46-501): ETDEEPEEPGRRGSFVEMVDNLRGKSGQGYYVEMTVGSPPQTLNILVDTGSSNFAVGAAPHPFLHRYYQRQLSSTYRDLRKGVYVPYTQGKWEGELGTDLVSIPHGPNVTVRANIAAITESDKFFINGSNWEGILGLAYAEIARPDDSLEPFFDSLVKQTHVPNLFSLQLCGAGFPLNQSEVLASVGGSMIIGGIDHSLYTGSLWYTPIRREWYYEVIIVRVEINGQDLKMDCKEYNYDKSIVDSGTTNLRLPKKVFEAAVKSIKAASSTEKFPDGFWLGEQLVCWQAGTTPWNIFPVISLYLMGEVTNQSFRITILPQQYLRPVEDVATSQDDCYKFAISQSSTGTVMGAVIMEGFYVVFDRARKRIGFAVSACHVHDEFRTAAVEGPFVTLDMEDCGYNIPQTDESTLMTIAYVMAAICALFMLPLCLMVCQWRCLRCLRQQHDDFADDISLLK
procedure.summary: In vitro enzymatic BACE FRET assay
Format: biochemical
reported.conditions: average IC50, enzyme assay
pIC50: −log10 of the molar value.
assay.readout: pIC50

Worked cases, pIC50 given:
CO[C@H]1C[C@]2(C1)C(N)=N[C@](C)(c1cc(NC(=O)c3ncc(Cl)cc3C)ccc1F)CS2(=O)=O
8.40
CC1(C)C(N)=N[C@]2(c3cc(N)ccc3F)COC[C@@H]2S1(=O)=O [Example 185d]
5.42

P: COc1cnc(C(=O)Nc2ccc(F)c([C@]34COC[C@H]3S(=O)(=O)C(C)(C)C(N)=N4)c2)c(C)c1
Q: CC1(C)C(N)=N[C@@]2(c3cc(Br)ccc3F)COC[C@H]2S1(=O)=O [Example 185a]
Q. Select the item whose pIC50 value is smaller, choosing between P and Q . Returns: label corresponding to the selected item.
A. Q
